The measurements presented in this section are drawn from paper PMC9482650.

Target: T1, ARHGEF11, O15085
T1 sequence (O15085 42-136, limits assumed, looked up): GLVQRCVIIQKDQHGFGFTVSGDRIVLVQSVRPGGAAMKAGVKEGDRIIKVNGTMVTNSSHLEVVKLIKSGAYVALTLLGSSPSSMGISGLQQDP
Assay: holdup assay
Parameters: key: below the threshold = too weak to quantify, mostly under pKd 3.1 to 4
Details: plain residues with an end cap or a label only (N-terminal biotin on a linker: ado-ado)
endpoint name: pKd

binder="THREVKFTSL [CD46, P15529]" endpoint_name=pKd value_reported=4.75
binder="VKQYADVEGF [HNRNPK, P61978;P61978-2]" endpoint_name=pKd value_reported="below the threshold"
binder="RSPVATATSC [DUSP5, Q16690]" endpoint_name=pKd value_reported="below the threshold"
binder="PLPPEEESWV [GAS2L2, Q8NHY3]" endpoint_name=pKd value_reported=4.46
binder="PSVYSRSQYV [CLDN8, P56748]" endpoint_name=pKd value_reported=4.16
binder="KEKASTETEC [TRPM1, Q7Z4N2]" endpoint_name=pKd value_reported="below the threshold"
binder="QLGSPTADLA [SIPA1, Q96FS4]" endpoint_name=pKd value_reported="below the threshold"
binder="RGKNRRQSIF [CDK18, Q07002]" endpoint_name=pKd value_reported="below the threshold"
